- Target entity: IMP dehydrogenase (Escherichia coli)
- Method summary: Ability to inhibit Inosine-5'-monophosphate dehydrogenase isolated from Escherichia coli
Metric: Ki (µM)
Give just the number in µM; leave the unit off.

A selection of reference data follows.
COc1nc(O)c2ncn(C3O[C@@H](COP(=O)(O)O)[C@H](O)[C@@H]3O)c2n1 (some centres undefined) | 46
CCCc1nc(O)c2ncn(C3O[C@@H](COP(=O)(O)O)[C@H](O)[C@@H]3O)c2n1 (some centres undefined) | 190
O=P(O)(O)OC[C@@H]1OC(n2cnc3c(O)nc(Cl)nc32)[C@@H](O)[C@H]1O (some centres undefined) | 120

What does the data say about its Ki? Entry: Cc1nc(O)c2ncn(C3O[C@@H](COP(=O)(O)O)[C@H](O)[C@@H]3O)c2n1 (some centres undefined)
600

---

- Target entity: Inosine-5'-monophosphate dehydrogenase (Escherichia coli K-12)
- Sequence (P0ADG7 whole entry): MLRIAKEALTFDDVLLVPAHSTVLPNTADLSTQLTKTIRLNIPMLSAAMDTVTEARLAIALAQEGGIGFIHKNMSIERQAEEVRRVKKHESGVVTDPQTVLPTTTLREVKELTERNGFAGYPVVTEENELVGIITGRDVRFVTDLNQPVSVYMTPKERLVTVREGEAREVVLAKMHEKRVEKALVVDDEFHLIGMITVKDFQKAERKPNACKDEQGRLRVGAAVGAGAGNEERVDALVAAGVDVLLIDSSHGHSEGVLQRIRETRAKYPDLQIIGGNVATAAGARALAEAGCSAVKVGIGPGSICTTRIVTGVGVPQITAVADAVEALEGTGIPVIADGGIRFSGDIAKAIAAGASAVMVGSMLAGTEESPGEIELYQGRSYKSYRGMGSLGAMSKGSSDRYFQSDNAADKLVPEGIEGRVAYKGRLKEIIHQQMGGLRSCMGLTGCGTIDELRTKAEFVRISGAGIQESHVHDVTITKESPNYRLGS
- Method summary: Ability to inhibit Inosine-5'-monophosphate dehydrogenase isolated from Escherichia coli
- Test conditions: read-out: I50
Metric: IC50

A selection of reference data follows.
O=P(O)(O)OC[C@@H]1OC(n2cnc3c(O)nc(-c4ccccc4)nc32)[C@@H](O)[C@H]1O (stereo not given in full) | > 1000 µM
O=P(O)(O)OC[C@@H]1OC(n2cnc3c(O)nc(Cc4cccnc4)nc32)[C@@H](O)[C@H]1O (stereo not given in full) | 430 µM
O=P(O)(O)OC[C@@H]1OC(n2cnc3c(O)nc(/C=C/c4ccccc4)nc32)[C@@H](O)[C@H]1O (stereo not given in full) | 69 µM
CCCCCCCCc1nc(O)c2ncn(C3O[C@@H](COP(=O)(O)O)[C@H](O)[C@@H]3O)c2n1 (stereo not given in full) | 680 µM
COc1ccc(-c2nc(O)c3ncn(C4O[C@@H](COP(=O)(O)O)[C@H](O)[C@@H]4O)c3n2)cc1 (stereo not given in full) | 810 µM

What does the data say about its IC50? Entry: O=P(O)(O)OC[C@@H]1OC(n2cnc3c(O)nc(SCc4ccccc4Cl)nc32)[C@@H](O)[C@H]1O (stereo not given in full)
72 µM

What does the data say about its IC50? Entry: O=P(O)(O)OC[C@@H]1OC(n2cnc3c(O)nc(Cc4ccccc4)nc32)[C@@H](O)[C@H]1O (stereo not given in full)
770 µM

What does the data say about its IC50? Entry: CCCCCCCc1nc(O)c2ncn(C3O[C@@H](COP(=O)(O)O)[C@H](O)[C@@H]3O)c2n1 (stereo not given in full)
270 µM

What does the data say about its IC50? Entry: CCCCCCCCCc1nc(O)c2ncn(C3O[C@@H](COP(=O)(O)O)[C@H](O)[C@@H]3O)c2n1 (stereo not given in full)
160 µM

What does the data say about its IC50? Entry: CCCCCCc1nc(O)c2ncn(C3O[C@@H](COP(=O)(O)O)[C@H](O)[C@@H]3O)c2n1 (stereo not given in full)
580 µM

What does the data say about its IC50? Entry: O=[N+]([O-])c1ccc(CSc2nc(O)c3ncn(C4O[C@@H](COP(=O)(O)O)[C@H](O)[C@@H]4O)c3n2)cc1 (stereo not given in full)
56 µM

What does the data say about its IC50? Entry: CCCCCCCCCCc1nc(O)c2ncn(C3O[C@@H](COP(=O)(O)O)[C@H](O)[C@@H]3O)c2n1 (stereo not given in full)
150 µM

What does the data say about its IC50? Entry: O=[N+]([O-])c1cc(CSc2nc(O)c3ncn(C4O[C@@H](COP(=O)(O)O)[C@H](O)[C@@H]4O)c3n2)cc([N+](=O)[O-])c1 (stereo not given in full)
85 µM

What does the data say about its IC50? Entry: O=[N+]([O-])c1cccc(CSc2nc(O)c3ncn(C4O[C@@H](COP(=O)(O)O)[C@H](O)[C@@H]4O)c3n2)c1 (stereo not given in full)
33 µM

What does the data say about its IC50? Entry: O=P(O)(O)OC[C@@H]1OC(n2cnc3c(O)nc(-c4cccnc4)nc32)[C@@H](O)[C@H]1O (stereo not given in full)
> 1000 µM
